Field: Ki. Provide a value for each of the molecules that follow.
molecular target: Norepinephrine transporter (Rattus norvegicus); test: Inhibition of reuptake of [3H]-NE at Norepinephrine transporter
The response must be a number in nM with no trailing unit.

Norepinephrine transporter (Rattus norvegicus) assay, molecule COC(=O)[C@H]1C2CC[C@@H]3C[C@@H]1/C(=C/c1ccc(F)cc1)CN23 , recorded Ki = 584

Record OC[C@H]1C2CC[C@@H]3C[C@@H]1/C(=C/c1ccccc1)CN23 has Norepinephrine transporter (Rattus norvegicus) Ki equal to 2830

Observed Ki on Norepinephrine transporter (Rattus norvegicus), entry COC(=O)[C@H]1C2CC[C@@H]3C[C@@H]1/C(=C/c1cccs1)CN23 , equals 26

Kindly note: Norepinephrine transporter (Rattus norvegicus), COC(=O)[C@H]1C2CC[C@@H]3C[C@@H]1/C(=C/c1cccc4ccccc14)CN23 , Ki value reported: 5370

Log: Norepinephrine transporter (Rattus norvegicus), molecule OC[C@H]1C2CC[C@@H]3C[C@@H]1/C(=C/c1ccc(Cl)c(Cl)c1)CN23 , Ki = 10500

---

molecular target: Norepinephrine transporter (Rattus norvegicus); assay: Inhibition of reuptake of [3H]-NE at Norepinephrine transporter
Would you mind telling me the reported pKi of each entry?
Keep in mind that pKi stands for -log10 of concentration in molar terms.

Lab note: measured pKi of COC(=O)[C@H]1C2CC[C@@H]3C[C@@H]1/C(=C/c1ccc(-c4ccccc4)cc1)CN23 was 7.92

Lab note: COC(=O)[C@H]1C2CC[C@@H]3C[C@@H]1/C(=C/c1ccc(Cl)c(Cl)c1)CN23 (stereo in doubt; 5b) gave pKi of 6.00

Lab book: pKi of COC(=O)[C@H]1C2CC[C@@H]3C[C@@H]1/C(=C/c1ccccc1)CN23 noted as 7.28

Item: COC(=O)[C@H]1C2CC[C@@H]3C[C@@H]1/C(=C/c1ccc(OC)cc1)CN23 | pKi: 6.73

---

molecular target: Norepinephrine transporter (Rattus norvegicus, UniProt Q9WTR4); assay: Inhibition of reuptake of [3H]-NE at Norepinephrine transporter
Sequence (Q9WTR4 whole entry): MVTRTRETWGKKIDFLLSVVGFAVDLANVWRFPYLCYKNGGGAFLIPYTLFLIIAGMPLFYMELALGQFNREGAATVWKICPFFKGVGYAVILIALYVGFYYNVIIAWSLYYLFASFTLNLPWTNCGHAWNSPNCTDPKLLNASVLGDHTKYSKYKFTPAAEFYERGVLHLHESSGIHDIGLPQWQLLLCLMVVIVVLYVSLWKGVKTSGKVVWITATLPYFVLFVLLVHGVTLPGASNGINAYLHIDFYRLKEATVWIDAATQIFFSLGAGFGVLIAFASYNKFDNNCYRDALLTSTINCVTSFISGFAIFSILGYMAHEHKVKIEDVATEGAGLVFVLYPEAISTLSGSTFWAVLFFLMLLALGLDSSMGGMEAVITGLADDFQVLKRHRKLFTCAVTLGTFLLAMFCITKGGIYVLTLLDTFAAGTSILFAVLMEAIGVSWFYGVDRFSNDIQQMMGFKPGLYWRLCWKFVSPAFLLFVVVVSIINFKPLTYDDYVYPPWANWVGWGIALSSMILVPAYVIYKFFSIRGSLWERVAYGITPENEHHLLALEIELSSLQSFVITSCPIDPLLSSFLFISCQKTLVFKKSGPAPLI
measurementType: pKi
Here pKi is given on a logarithmic scale as minus log10 of the concentration in mol/L.

// COC(=O)[C@H]1C2CC[C@@H]3C[C@@H]1/C(=C/c1ccco1)CN23 : pKi value = 6.95

pKi reported for this compound COC(=O)[C@H]1C2CC[C@@H]3C[C@@H]1/C(=C\c1ccccc1)CN23 : 5.82

What the record says about COC(=O)[C@H]1C2CC[C@@H]3C[C@@H]1/C(=C/c1ccoc1)CN23 : pKi is 6.79

So for CC(=O)OC[C@H]1C2CC[C@@H]3C[C@@H]1/C(=C/c1ccccc1)CN23 , the logged pKi turned out to be 6.35

---

target: UniProt P23975; experiment: Compound was evaluated for inhibition of [3H]NE uptake in HEK-hNET cells expressing Human norepinephrine transporter; format: cell-based
measurementType: Ki (nM)
A number alone suffices; assume nM.

The reported value for COC(=O)[C@H]1C2CC[C@@H]3C[C@@H]1/C(=C/c1ccc(OC)cc1)CN23 in terms of Ki is 208

Per the records, this molecule ( COC(=O)[C@H]1C2CC[C@@H]3C[C@@H]1/C(=C/c1ccccc1)CN23 ) has Ki equal to 68

For record COC(=O)[C@H]1C2CC[C@@H]3C[C@@H]1/C(=C/c1ccc(Cl)c(Cl)c1)CN23 (stereo in doubt; 5b) the listed Ki is 640

---

Please go through the items and note down their pKi.
target: UniProtKB P23977; assay: Inhibition of reuptake of [3H]DA at Dopamine transporter (DAT)
Sequence (P23977 whole entry): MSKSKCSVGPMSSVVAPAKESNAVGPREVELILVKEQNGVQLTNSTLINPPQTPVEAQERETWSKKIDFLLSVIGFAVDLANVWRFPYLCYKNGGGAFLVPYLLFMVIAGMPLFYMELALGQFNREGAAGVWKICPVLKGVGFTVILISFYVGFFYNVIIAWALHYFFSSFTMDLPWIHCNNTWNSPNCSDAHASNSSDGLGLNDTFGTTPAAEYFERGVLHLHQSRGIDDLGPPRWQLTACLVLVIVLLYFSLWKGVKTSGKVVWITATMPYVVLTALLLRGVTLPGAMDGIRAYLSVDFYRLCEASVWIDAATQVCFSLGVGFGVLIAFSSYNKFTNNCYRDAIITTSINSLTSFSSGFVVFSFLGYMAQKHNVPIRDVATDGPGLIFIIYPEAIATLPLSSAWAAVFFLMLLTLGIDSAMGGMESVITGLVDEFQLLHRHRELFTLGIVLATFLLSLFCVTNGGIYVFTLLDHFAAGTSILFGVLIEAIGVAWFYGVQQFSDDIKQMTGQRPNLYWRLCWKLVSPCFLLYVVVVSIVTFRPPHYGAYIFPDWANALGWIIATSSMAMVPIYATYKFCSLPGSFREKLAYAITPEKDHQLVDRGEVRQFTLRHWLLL
Interpret pKi as the negative base-10 log of the concentration measured in mol/L.

Please fill in: pKi reported for OC[C@H]1C2CC[C@@H]3C[C@@H]1/C(=C/c1ccccc1)CN23 = 5.01

Short answer for COC(=O)[C@H]1C2CC[C@@H]3C[C@@H]1/C(=C/c1ccc(Cl)c(Cl)c1)CN23 (stereo in doubt; 5b) : pKi was 5.72

Entry under test: COC(=O)[C@H]1C2CC[C@@H]3C[C@@H]1/C(=C/c1ccco1)CN23 . Its pKi was 5.69

// sample COC(=O)[C@H]1C2CC[C@@H]3C[C@@H]1/C(=C/c1ccccc1)CN23 , its pKi was 6.32

For this compound ( COC(=O)[C@H]1C2CC[C@@H]3C[C@@H]1/C(=C/c1cccs1)CN23 ), measured pKi is 6.57

Documented pKi of OC[C@H]1C2CC[C@@H]3C[C@@H]1/C(=C/c1ccc(Cl)c(Cl)c1)CN23 : 4.67

Record COC(=O)[C@H]1C2CC[C@@H]3C[C@@H]1/C(=C/c1ccc(F)cc1)CN23 , field pKi: 5.18

Lab book: pKi of COC(=O)[C@H]1C2CC[C@@H]3C[C@@H]1/C(=C/c1ccc(-c4ccccc4)cc1)CN23 noted as 6.32

get_value(item= COC(=O)[C@H]1C2CC[C@@H]3C[C@@H]1/C(=C\c1ccccc1)CN23 , readout=pKi) returns 5.29

Lab note: measured pKi of COC(=O)[C@H]1C2CC[C@@H]3C[C@@H]1/C(=C/c1ccc(OC)cc1)CN23 was 5.50

The recorded pKi for COC(=O)[C@H]1C2CC[C@@H]3C[C@@H]1/C(=C/c1cccc4ccccc14)CN23 is 5.01

response.value for COC(=O)[C@H]1C2CC[C@@H]3C[C@@H]1/C(=C/c1ccoc1)CN23 (field: pKi) = 5.73

Just so you know, measured pKi for CC(=O)OC[C@H]1C2CC[C@@H]3C[C@@H]1/C(=C/c1ccccc1)CN23 came out at 5.99

---

target: Sodium-dependent serotonin transporter (Rattus norvegicus); assay: Inhibition of reuptake of [3H]5-HT at serotonin transporter
measurementType: Ki (nM)
Form entry: value (nM) — number only.

Consider COC(=O)[C@H]1C2CC[C@@H]3C[C@@H]1/C(=C/c1cccs1)CN23 . Its measured Ki is 2050

Lab note: COC(=O)[C@H]1C2CC[C@@H]3C[C@@H]1/C(=C/c1ccc(Cl)c(Cl)c1)CN23 (stereo in doubt; 5b) gave Ki of 20

Notebook: COC(=O)[C@H]1C2CC[C@@H]3C[C@@H]1/C(=C\c1ccccc1)CN23 , Ki read as 7480

Briefly, Ki measured for COC(=O)[C@H]1C2CC[C@@H]3C[C@@H]1/C(=C/c1ccccc1)CN23 : 1140

Item: OC[C@H]1C2CC[C@@H]3C[C@@H]1/C(=C/c1ccccc1)CN23 | Ki: 5300

---

target: Sodium-dependent serotonin transporter (Homo sapiens, UniProt P31645); experiment: Compound was evaluated for binding affinity using [125I]RTI-55 as a radioligand in HEK-hSERT cells expressing human serotonin transporter; assay type: cell-based
Sequence (P31645 whole entry): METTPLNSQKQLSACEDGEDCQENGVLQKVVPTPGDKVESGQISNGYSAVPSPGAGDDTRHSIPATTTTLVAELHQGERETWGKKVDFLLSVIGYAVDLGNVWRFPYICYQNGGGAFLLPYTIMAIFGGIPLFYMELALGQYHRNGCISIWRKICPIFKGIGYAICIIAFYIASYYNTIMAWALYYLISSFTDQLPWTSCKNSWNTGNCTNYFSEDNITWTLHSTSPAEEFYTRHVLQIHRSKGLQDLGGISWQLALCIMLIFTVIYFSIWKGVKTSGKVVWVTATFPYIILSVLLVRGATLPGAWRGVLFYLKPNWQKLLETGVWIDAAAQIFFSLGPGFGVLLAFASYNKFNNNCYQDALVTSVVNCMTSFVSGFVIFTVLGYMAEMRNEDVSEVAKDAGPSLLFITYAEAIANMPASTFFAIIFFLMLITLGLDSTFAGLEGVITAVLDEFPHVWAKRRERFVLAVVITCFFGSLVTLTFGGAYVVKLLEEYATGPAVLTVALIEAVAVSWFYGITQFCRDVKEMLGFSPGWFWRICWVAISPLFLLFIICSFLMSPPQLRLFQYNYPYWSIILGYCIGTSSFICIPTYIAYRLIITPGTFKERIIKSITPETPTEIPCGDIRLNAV
Please provide measured pKi for the entries that follow.
Please keep in mind that pKi is minus log10 of the molar concentration; only the number is needed.

Kindly note the recorded pKi for COC(=O)[C@H]1C2CC[C@@H]3C[C@@H]1/C(=C/c1ccc(OC)cc1)CN23 , which is 7.38

The reported value for COC(=O)[C@H]1C2CC[C@@H]3C[C@@H]1/C(=C/c1ccc(Cl)c(Cl)c1)CN23 (stereo in doubt; 5b) in terms of pKi is 9.25

So for COC(=O)[C@H]1C2CC[C@@H]3C[C@@H]1/C(=C/c1ccccc1)CN23 , the logged pKi turned out to be 5.63

---

Would you kindly list Ki for each of these molecules?
target: Sodium-dependent noradrenaline transporter (Homo sapiens, UniProt P23975); assay: Compound was evaluated for binding affinity using [125I]RTI-55 as a radioligand in HEK-hNET cells expressing human norepinephrine transporter; type: cell-based
Sequence (P23975 whole entry): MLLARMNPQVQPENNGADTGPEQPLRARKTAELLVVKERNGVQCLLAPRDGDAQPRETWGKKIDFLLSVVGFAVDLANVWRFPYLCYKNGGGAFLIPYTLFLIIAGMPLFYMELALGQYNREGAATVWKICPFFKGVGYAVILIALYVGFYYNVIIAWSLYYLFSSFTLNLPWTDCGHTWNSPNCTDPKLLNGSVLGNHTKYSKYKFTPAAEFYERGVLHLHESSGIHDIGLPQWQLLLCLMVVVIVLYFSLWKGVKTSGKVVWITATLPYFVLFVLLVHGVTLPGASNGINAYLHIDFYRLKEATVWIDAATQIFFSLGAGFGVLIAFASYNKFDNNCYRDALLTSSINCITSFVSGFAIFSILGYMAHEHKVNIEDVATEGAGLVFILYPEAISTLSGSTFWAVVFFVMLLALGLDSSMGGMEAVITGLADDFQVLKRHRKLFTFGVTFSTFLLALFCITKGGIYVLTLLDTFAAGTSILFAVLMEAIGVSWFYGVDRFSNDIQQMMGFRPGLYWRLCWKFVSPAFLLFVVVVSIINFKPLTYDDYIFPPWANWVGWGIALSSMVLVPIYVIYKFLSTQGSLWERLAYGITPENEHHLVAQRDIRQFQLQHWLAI

Lab book: Ki of COC(=O)[C@H]1C2CC[C@@H]3C[C@@H]1/C(=C/c1ccc(OC)cc1)CN23 noted as 5.44 µM

# Ki (molecule: COC(=O)[C@H]1C2CC[C@@H]3C[C@@H]1/C(=C/c1ccc(Cl)c(Cl)c1)CN23 (stereo in doubt; 5b) ) is 3.77 µM

The recorded Ki for entry COC(=O)[C@H]1C2CC[C@@H]3C[C@@H]1/C(=C/c1ccccc1)CN23 equals 1.04 µM

---

biological target: Sodium-dependent serotonin transporter (Rattus norvegicus, UniProt P31652); assay: Inhibition of reuptake of [3H]5-HT at serotonin transporter
Sequence (P31652 whole entry): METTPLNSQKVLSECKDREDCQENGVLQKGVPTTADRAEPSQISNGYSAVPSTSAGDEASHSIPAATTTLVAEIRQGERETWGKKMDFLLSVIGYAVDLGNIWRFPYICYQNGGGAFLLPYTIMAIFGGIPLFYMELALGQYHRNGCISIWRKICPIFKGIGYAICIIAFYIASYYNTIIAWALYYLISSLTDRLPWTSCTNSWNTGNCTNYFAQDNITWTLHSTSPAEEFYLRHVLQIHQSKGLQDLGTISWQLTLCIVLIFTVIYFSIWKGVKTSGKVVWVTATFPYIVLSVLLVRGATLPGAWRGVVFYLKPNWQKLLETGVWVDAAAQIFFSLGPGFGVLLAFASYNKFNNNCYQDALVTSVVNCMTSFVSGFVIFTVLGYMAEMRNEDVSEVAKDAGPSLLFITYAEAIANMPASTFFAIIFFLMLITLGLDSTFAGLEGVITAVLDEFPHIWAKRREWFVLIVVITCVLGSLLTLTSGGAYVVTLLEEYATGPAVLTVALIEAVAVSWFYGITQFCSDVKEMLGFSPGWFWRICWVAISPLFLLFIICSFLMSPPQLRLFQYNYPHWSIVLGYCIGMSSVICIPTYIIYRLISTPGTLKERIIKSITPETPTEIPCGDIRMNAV
measurementType: pKi
Would you please state pKi, meaning minus log10 of the concentration in mol/L, as a bare number?

So, COC(=O)[C@H]1C2CC[C@@H]3C[C@@H]1/C(=C/c1ccco1)CN23 ? Its pKi was 5.43

// recorded pKi for COC(=O)[C@H]1C2CC[C@@H]3C[C@@H]1/C(=C/c1ccc(OC)cc1)CN23 : 7.25

Form: compound = COC(=O)[C@H]1C2CC[C@@H]3C[C@@H]1/C(=C/c1cccc4ccccc14)CN23 ; pKi = 6.92

For this compound ( COC(=O)[C@H]1C2CC[C@@H]3C[C@@H]1/C(=C/c1ccc(F)cc1)CN23 ), measured pKi is 6.47

// sample COC(=O)[C@H]1C2CC[C@@H]3C[C@@H]1/C(=C/c1ccc(-c4ccccc4)cc1)CN23 , its pKi was 6.21

Record summary for CC(=O)OC[C@H]1C2CC[C@@H]3C[C@@H]1/C(=C/c1ccccc1)CN23 : reported pKi = 5.98

The compound listed as OC[C@H]1C2CC[C@@H]3C[C@@H]1/C(=C/c1ccc(Cl)c(Cl)c1)CN23 shows pKi equal to 7.02

response.value for COC(=O)[C@H]1C2CC[C@@H]3C[C@@H]1/C(=C/c1ccoc1)CN23 (field: pKi) = 6.30
